# Tested on: E. coli ATCC 25922
# cond: ATCC 25922
Positions of bridges follow the written chain, without caps; N, C: chain ends. Non-standard residues stand in square brackets, D forms with d. Residues, ends and D or L forms follow the SMILES beside them. *: point of attachment. Decanoyl(3R-OH) = CCCCCCC[C@@H](O)CC(=O)*; Heptanoyl(6-Me) = CC(C)CCCCC(=O)*; dDab = NCC[C@@H](N)C(=O)O; dDap = NC[C@@H](N)C(=O)O; Dab = NCC[C@H](N)C(=O)O; Dap = NC[C@H](N)C(=O)O

compound	measured.on	MIC E. coli ATCC 25922 (µg/mL)
CC(C)CCCCC(=O)N[C@H](CCN)C(=O)N[C@H]1CCNC(=O)[C@H](CC(C)C)NC(=O)[C@H](CCN)NC(=O)[C@H](CCN)NC(=O)[C@H](CC(C)C)NC(=O)[C@@H](Cc2ccccc2)NC(=O)[C@H](CCN)NC1=O [compound 9290] ({Heptanoyl(6-Me)}-[dDab][Dab][Dab][dF]L[Dab][Dab]L; lactam 2-C)	E. coli ATCC 25922	8
CCCCCCC[C@@H](O)CC(=O)N[C@H](CN)C(=O)N[C@H]1CCNC(=O)[C@H](CC(C)C)NC(=O)[C@H](CCN)NC(=O)[C@H](CCN)NC(=O)[C@H]([C@@H](C)O)NC(=O)[C@@H](Cc2ccccc2)NC(=O)[C@H](CCN)NC1=O [compound 9295] ({Decanoyl(3R-OH)}-[dDap][Dab][Dab][dF]T[Dab][Dab]L; lactam 2-C)	E. coli ATCC 25922	2
CCCCCCC[C@@H](O)CC(=O)N[C@H](CCN)C(=O)N[C@H]1CCNC(=O)[C@H](Cc2ccccc2)NC(=O)[C@H](CN)NC(=O)[C@H](CCN)NC(=O)[C@H](CC(C)C)NC(=O)[C@@H](Cc2ccccc2)NC(=O)[C@H](CCN)NC1=O [compound 5385] ({Decanoyl(3R-OH)}-[dDab][Dab][Dab][dF]L[Dab][Dap]F; lactam 2-C)	E. coli ATCC 25922	4

----------
# Test system: K. pneumoniae GN_106, PmxR
# cond: GN 106, PmxR
Positions of bridges follow the written chain, without caps; N, C: chain ends. Non-standard residues stand in square brackets, D forms with d. Residues, ends and D or L forms follow the SMILES beside them. *: point of attachment. Benzoyl(4-Ph) = O=C(c1ccc(-c2ccccc2)cc1)*; Nonanoyl = CCCCCCCCC(=O)*; dDab = NCC[C@@H](N)C(=O)O; dDap = NC[C@@H](N)C(=O)O; Dab = NCC[C@H](N)C(=O)O
property.label: MIC K. pneumoniae GN_106, PmxR (µg/mL)

compound	readout.qualifier	reported.result
CC(C)C[C@@H]1NC(=O)[C@H](CCN)NC(=O)[C@H](CCN)NC(=O)[C@H](CC(C)C)NC(=O)[C@@H](Cc2ccccc2)NC(=O)[C@H](CCN)NC(=O)[C@@H](NC(=O)[C@@H](CCN)NC(=O)c2ccc(-c3ccccc3)cc2)CCNC1=O [compound 6526] ({Benzoyl(4-Ph)}-[dDab][Dab][Dab][dF]L[Dab][Dab]L; lactam 2-C)	>	32
CCCCCCCCC(=O)N[C@H](CN)C(=O)N[C@H]1CCNC(=O)[C@H](CC(C)C)NC(=O)[C@H](CCN)NC(=O)[C@H](CCN)NC(=O)[C@H](CC(C)C)NC(=O)[C@@H](Cc2ccccc2)NC(=O)[C@H](CCN)NC1=O [compound 9191] (Nonanoyl-[dDap][Dab][Dab][dF]L[Dab][Dab]L; lactam 2-C)	=	16

----------
# System: K. pneumoniae GN_106, PmxR
# cond: GN 106, PmxR
Positions of bridges follow the written chain, without caps; N, C: chain ends. Non-standard residues stand in square brackets, D forms with d. Residues, ends and D or L forms follow the SMILES beside them. *: point of attachment. Decanoyl(3R-OH) = CCCCCCC[C@@H](O)CC(=O)*; d3Pal = N[C@H](Cc1cccnc1)C(=O)O; X3 = CCCCCCCCCCCC(O)CC(=O)*; dDab = NCC[C@@H](N)C(=O)O; dDap = NC[C@@H](N)C(=O)O; Dab = NCC[C@H](N)C(=O)O
Consider the following compounds and their measured MIC K. pneumoniae GN_106, PmxR readings.

compound	MIC K. pneumoniae GN_106, PmxR / mg/L
CCCCCCC[C@@H](O)CC(=O)N[C@H](Cc1cccnc1)C(=O)N[C@H]1CCNC(=O)[C@H](CC(C)C)NC(=O)[C@H](CCN)NC(=O)[C@H](CCN)NC(=O)[C@H](Cc2ccccc2)NC(=O)[C@@H](CC(C)C)NC(=O)[C@H](CCN)NC1=O [compound 6430] ({Decanoyl(3R-OH)}-[d3Pal][Dab][Dab][dL]F[Dab][Dab]L; lactam 2-C)	4
CCCCCCC[C@@H](O)CC(=O)N[C@H](CN)C(=O)N[C@H]1CCNC(=O)[C@H](Cc2c[nH]c3ccccc23)NC(=O)[C@H](CCN)NC(=O)[C@H](CCN)NC(=O)[C@H](CC(C)C)NC(=O)[C@@H](Cc2ccccc2)NC(=O)[C@H](CCN)NC1=O [compound 8886] ({Decanoyl(3R-OH)}-[dDap][Dab][Dab][dF]L[Dab][Dab]W; lactam 2-C)	4
CCCCCCCCCCCC(O)CC(=O)N[C@H](CCN)C(=O)N[C@H]1CCNC(=O)[C@H](CC(C)C)NC(=O)[C@H](CCN)NC(=O)[C@H](CCN)NC(=O)[C@H](CC(C)C)NC(=O)[C@@H](Cc2ccccc2)NC(=O)[C@H](CCN)NC1=O (stereo partly drawn) [compound 5015] (X3-[dDab][Dab][Dab][dF]L[Dab][Dab]L; lactam 2-C)	4

----------
# Tested on: E. coli ATCC 25922
# cond: ATCC 25922
Positions of bridges follow the written chain, without caps; N, C: chain ends. Non-standard residues stand in square brackets, D forms with d. Residues, ends and D or L forms follow the SMILES beside them. *: point of attachment. Decanoyl(3R-OH) = CCCCCCC[C@@H](O)CC(=O)*; dPhe(4-NH2) = Nc1ccc(C[C@@H](N)C(=O)O)cc1; X12 = O=C(c1ccn(-c2ccccc2)c(=O)c1)*; d3Pal = N[C@H](Cc1cccnc1)C(=O)O; dDap = NC[C@@H](N)C(=O)O; Dab = NCC[C@H](N)C(=O)O

compound	MIC E. coli ATCC 25922
CCCCCCC[C@@H](O)CC(=O)N[C@H](Cc1ccc(N)cc1)C(=O)N[C@H]1CCNC(=O)[C@H]([C@@H](C)O)NC(=O)[C@H](CCN)NC(=O)[C@H](CCN)NC(=O)[C@H](CC(C)C)NC(=O)[C@@H](Cc2ccccc2)NC(=O)[C@H](CCN)NC1=O [compound 6397] ({Decanoyl(3R-OH)}-[dPhe(4-NH2)][Dab][Dab][dF]L[Dab][Dab]T; lactam 2-C)	>64 µg/mL
CC(C)C[C@@H]1NC(=O)[C@H](CCN)NC(=O)[C@H](CCN)NC(=O)[C@H](CC(C)C)NC(=O)[C@@H](Cc2ccccc2)NC(=O)[C@H](CCN)NC(=O)[C@@H](NC(=O)[C@@H](CN)NC(=O)c2ccn(-c3ccccc3)c(=O)c2)CCNC1=O [compound 9189] (X12-[dDap][Dab][Dab][dF]L[Dab][Dab]L; lactam 2-C)	>32 µg/mL
CCCCCCC[C@@H](O)CC(=O)N[C@H](Cc1cccnc1)C(=O)N[C@H]1CCNC(=O)[C@H](CC(C)C)NC(=O)[C@H](CCN)NC(=O)[C@H](CCN)NC(=O)[C@H](Cc2ccccc2)NC(=O)[C@@H](CC(C)C)NC(=O)[C@H](CCN)NC1=O [compound 6430] ({Decanoyl(3R-OH)}-[d3Pal][Dab][Dab][dL]F[Dab][Dab]L; lactam 2-C)	16 µg/mL

----------
# Test system: E. coli ATCC 25922
# cond: ATCC 25922
Positions of bridges follow the written chain, without caps; N, C: chain ends. Non-standard residues stand in square brackets, D forms with d. Residues, ends and D or L forms follow the SMILES beside them. *: point of attachment. Decanoyl(3R-OH) = CCCCCCC[C@@H](O)CC(=O)*; dPhe(3-Cl) = N[C@H](Cc1cccc(Cl)c1)C(=O)O; Ala(cPr) = N[C@@H](CC1CC1)C(=O)O; dDab = NCC[C@@H](N)C(=O)O; X8 = CC(C)CCCC(C)CC(=O)*; Dab = NCC[C@H](N)C(=O)O
property.label: MIC E. coli ATCC 25922 (µg/mL)

compound	measured.on	reported.result
CC(C)CCCC(C)CC(=O)N[C@H](CCN)C(=O)N[C@H]1CCNC(=O)[C@H](CC(C)C)NC(=O)[C@H](CCN)NC(=O)[C@H](CCN)NC(=O)[C@H](Cc2ccccc2)NC(=O)[C@@H](CC(C)C)NC(=O)[C@H](CCN)NC1=O (stereo partly drawn) [compound 6515] (X8-[dDab][Dab][Dab][dL]F[Dab][Dab]L; lactam 2-C)	E. coli ATCC 25922	2
CCCCCCC[C@@H](O)CC(=O)N[C@H](CCN)C(=O)N[C@H]1CCNC(=O)[C@H](Cc2c[nH]c3ccccc23)NC(=O)[C@H](CCN)NC(=O)[C@H](CCN)NC(=O)[C@H](CC(C)C)NC(=O)[C@@H](Cc2cccc(Cl)c2)NC(=O)[C@H](CCN)NC1=O [compound 8914] ({Decanoyl(3R-OH)}-[dDab][Dab][Dab][dPhe(3-Cl)]L[Dab][Dab]W; lactam 2-C)	E. coli ATCC 25922	2
CCCCCCC[C@@H](O)CC(=O)N[C@H](CCN)C(=O)N[C@H]1CCNC(=O)[C@H](Cc2c[nH]c3ccccc23)NC(=O)[C@H](CCN)NC(=O)[C@H](CCN)NC(=O)[C@H](CC2CC2)NC(=O)[C@@H](Cc2ccccc2)NC(=O)[C@H](CCN)NC1=O [compound 8099] ({Decanoyl(3R-OH)}-[dDab][Dab][Dab][dF][Ala(cPr)][Dab][Dab]W; lactam 2-C)	E. coli ATCC 25922	8
